Kindly state inhibition of cAMP production, 100 nM for each of the entries shown.
- MEASURED_TARGET: human glucagon receptor (human, UniProt P47871 26-477)
- METHOD_DESCRIPTION: cell-based or functional assay
Starred links: 1 amine or outer side, 2 acyl side, 3 side chain; linkers in the order of their positions; H or OH if unused. Non-standard residues stand in square brackets, D forms with d. No end group written: not given here. AMCB = 2-amino-5-(4-chloro-2-methylphenyl)pentanoic acid, Cc1cc(Cl)ccc1CCC[C@H](N[*:1])C(=O)[*:2]; Bip(2'-Et-4'-OMe) = CCc1cc(OC)ccc1-c1ccc(C[C@H](N)C(=O)O)cc1; Leu(5,5,5,5',5',5'-F6) = N[C@@H](CC(C(F)(F)F)C(F)(F)F)C(=O)O; Nva(5-(3,5-Me2Ph)) = Cc1cc(C)cc(CCC[C@H](N)C(=O)O)c1; 2F‑APPA = 2-amino-5-(2-fluorophenyl)pentanoic acid; αMePhe(2-F) = C[C@](N)(Cc1ccccc1F)C(=O)O; hhPhe = N[C@@H](CCCc1ccccc1)C(=O)O; aThr = C[C@H](O)[C@H](N)C(=O)O; αMeP = C[C@@]1(C(=O)O)CCCN1; Ac5c = NC1(C(=O)O)CCCC1; CNB = not defined here; Aib = CC(C)(N)C(=O)O
Return type: number; implicit unit pmol/ml/µg prt.

What value of inhibition of cAMP production, 100 nM has been recorded for this entry: H[αMeP]QGTFTSD[Bip(2'-Et-4'-OMe)][hhPhe] [Seq. ID. No. 9: H-(α-Me-Pro)-QGTFTSD-Bip(OMe)-(APPA)]
0

Which inhibition of cAMP production, 100 nM reading was recorded for the binder H[Ac5c]QGTFTSD[Bip(2'-Et-4'-OMe)][Nva(5-(3,5-Me2Ph))] [Seq. ID. No. 26: H-(APP)-QGTFTSD-Bip(OMe)-(ADMP)] ?
8

What value of measured inhibition of cAMP production, 100 nM is listed for H[Aib]QG[aThr][αMePhe(2-F)][aThr]SD[Bip(2'-Et-4'-OMe)][hhPhe] (also: reduced (CH2) bond between 10 and 11) [Seq. ID. No. 189: H-Aib-QG-T(allo)-(α-Me-2F-Phe)-T(allo)-SD-Bip(OMe)-(CH2)-(APPA)] ?
0

Can you look up the measured inhibition of cAMP production, 100 nM of H[Aib][CNB]G[aThr][αMePhe(2-F)][aThr]SD[Bip(2'-Et-4'-OMe)][hhPhe] (reading uncertain; also: thioamide bond between residues 10 and 11) [Seq. ID. No. 166: H-Aib-(CNB)-G-T(allo)-(α-Me-2F-Phe)-T(allo)-SD-Bip(OMe)-(C═S)-(APPA)] for me?
15

Query (binder): H[Aib][CNB]G[aThr][αMePhe(2-F)][aThr]SD[Bip(2'-Et-4'-OMe)][hhPhe] (reading uncertain; also: thioamide bonds between residues 9-10 and 10-11) [Seq. ID. No. 178: H-Aib-(CNB)-G-T(allo)-(α-Me-2F-Phe)-T(allo)-SD-(C═S)-Bip(OMe)-(C═S)-(APPA)] ; field requested: inhibition of cAMP production, 100 nM
0

Report inhibition of cAMP production, 100 nM for H[Aib][Leu(5,5,5,5',5',5'-F6)]GT[αMePhe(2-F)]TSD[Bip(2'-Et-4'-OMe)][AMCB] [Seq. ID. No. 237: H-Aib-(Hfl)-GT-(α-Me-2F-Phe)-TSD-Bip(OMe)-(AMCB)] please.
18

Recorded inhibition of cAMP production, 100 nM for H[Aib][CNB]G[aThr][αMePhe(2-F)]TSD[Bip(2'-Et-4'-OMe)][2F‑APPA] (reading uncertain) [Seq. ID. No. 112: H-Aib-(CNB)-G-T(allo)-(α-Me-2F-Phe)-TSD-Bip(OMe)-(2F-APPA)] , please?
2

Values were extracted from patent US20120021972A1.
